Experiment: physchem
Settings: octanol/water
Description: Partition coefficient (logP) (HPLC)
QUANTITY KIND: logP
The answer should be a number; do not append a unit.

Query: Can you look up the measured logP of O=C(c1ccccc1O)c1ccc2n1CCC2C(=O)O (stereo not drawn) for me?
Reply: 2.94

Query: # query: logP of entry O=C(c1ccccc1I)c1ccc2n1CCC2C(=O)O (stereo not drawn)
Reply: 2.98

Query: What value of measured logP is listed for O=C(c1ccc(F)cc1)c1ccc2n1CCCC2C(=O)O (stereo not drawn) ?
Reply: 2.94
